EXPERIMENTAL_SYSTEM: Sigma non-opioid intracellular receptor 1 (Rattus norvegicus)
Sequence (Q9R0C9 whole entry): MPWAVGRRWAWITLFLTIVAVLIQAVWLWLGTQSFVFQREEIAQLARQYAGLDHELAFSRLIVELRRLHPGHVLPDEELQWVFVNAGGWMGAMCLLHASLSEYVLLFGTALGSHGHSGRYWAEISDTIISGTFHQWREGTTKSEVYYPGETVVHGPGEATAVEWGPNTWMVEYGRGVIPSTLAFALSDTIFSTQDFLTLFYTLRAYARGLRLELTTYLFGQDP
ASSAY_OVERVIEW: Binding affinity against sigma receptor from rat whole brains using [3H]DTG as the radioligand.
pKi: −log10 of the molar value.
Quick reference for pKi among some compounds
MEASUREMENT_KIND: pKi

[
  {
    "STRUCTURE_AS_SMILES": "C1=C(CN2CCOCC2)COc2c1cccc2OC[C@H]1CNCCO1.CS(=O)(=O)O",
    "VALUE": "< 5.00"
  },
  {
    "STRUCTURE_AS_SMILES": "C1=C(CN2CCOCC2)COc2c1cccc2OC[C@@H]1CNCCO1.Cl",
    "VALUE": "< 5.00"
  }
]
